Biological target: T1, Claudin 18.2 (CLDN18.2), expressed on CHOS-CLDN 18.2 / HEK293-CLDN 18.2 / HCC827-CLDN 18.2 cells (human, UniProt P56856-2 1-261)
T1 construct: whole, on cells; The species is not repeated for the CHOS-CLDN 18.2 cells; also called claudin-18A2
Test: FACS, CHOS-CLDN18.2 cells, 0.020 µg/ml
reported.endpoint: FACS reading

# example entries with known answers
INSERT INTO measurements (binder, reported_endpoint, result) VALUES
  ('QP14561454 (antibody, human IgG1, kappa, V domains shown, Humanized from QP201202) VH: QVQLVQSGAEVKKPGASVKVSCKASGYTFTNYFVHWVRQAPGQGLEWMGYINPYNDDTKYNEKFKGRVTMTRDTSTSTVYMELSSLRSEDTAVYYCLSLRFFAYWGQGTLVTVSS VL: DIVMTQSPDSLAVSLGERATISCKSSQSLLNSGNQKNYLTWYQQKPGQAPKLLIYWASTRESGVPDRFSGSGSGTDFTLTISSVQAEDVAVYFCQNDYSYPLTFGGGTKVEIKR', 'FACS reading', 6390),
  ('QP024025 (antibody, human IgG1, V domains shown, also called IMAB362; 175D10(IMAB362)) VH: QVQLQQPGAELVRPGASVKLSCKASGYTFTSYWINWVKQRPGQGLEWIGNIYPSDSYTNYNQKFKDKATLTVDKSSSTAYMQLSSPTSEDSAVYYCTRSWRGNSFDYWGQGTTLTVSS VL: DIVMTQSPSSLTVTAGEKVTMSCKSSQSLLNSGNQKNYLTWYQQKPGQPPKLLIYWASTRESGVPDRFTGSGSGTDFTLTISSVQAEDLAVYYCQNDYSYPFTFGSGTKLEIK', 'FACS reading', 6950),
  ('QP201202 (antibody, human IgG1, V domains shown, Chimeric; also called 44C6) VH: EVQLQQSGPELVKPGASVKMSCKASGYTFTNYFVHWVKQKPGQGLEWIGYINPYNDDTKYNEKFKGKATLTSDKSSSTAYMDLSSLTSEDSAVYYCLSLRFFAYWGQGTLVTVSA VL: DIVMTQSPSSLTVTAGEKVTMSCKSSQSLLNSGNQKNYLTWYQQKPGQAPKLLIYWASTRESGVPDRFIGSGSGTDFTLTISHVQAEDLAVYFCQNDYSYPLTFGAGTNLELK', 'FACS reading', 4770);

For the next question, use this binder.
IN: So what does the record say about FACS reading for QP14581454 (antibody, human IgG1, kappa, V domains shown, Humanized from QP201202) VH: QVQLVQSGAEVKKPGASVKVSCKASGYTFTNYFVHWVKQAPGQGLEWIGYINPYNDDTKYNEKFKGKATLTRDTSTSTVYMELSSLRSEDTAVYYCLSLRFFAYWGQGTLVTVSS VL: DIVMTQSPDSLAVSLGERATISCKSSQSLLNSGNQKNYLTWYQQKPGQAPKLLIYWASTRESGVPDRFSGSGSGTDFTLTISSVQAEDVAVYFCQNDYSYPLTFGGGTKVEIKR ?
OUT: 4470
